System: SiHa
Assay: Cytotoxicity against human SiHa cells assessed as reduction in cell viability measured for 48 hrs by MTT assay
Assay type: functional, cell-based
Readout Name: IC50 (µM)
Report as a plain number; the unit µM is understood.

Ask | Tell me the measured IC50 of `COc1cc2oc(C(=O)c3cc(OC)c(OC)c(OC)c3)cc2cc1/C=C/C(=O)O` , please.
Reply | 1.1

---

Biological target: Histone deacetylase 2 (Homo sapiens, UniProt Q92769)
Sequence (Q92769 whole entry): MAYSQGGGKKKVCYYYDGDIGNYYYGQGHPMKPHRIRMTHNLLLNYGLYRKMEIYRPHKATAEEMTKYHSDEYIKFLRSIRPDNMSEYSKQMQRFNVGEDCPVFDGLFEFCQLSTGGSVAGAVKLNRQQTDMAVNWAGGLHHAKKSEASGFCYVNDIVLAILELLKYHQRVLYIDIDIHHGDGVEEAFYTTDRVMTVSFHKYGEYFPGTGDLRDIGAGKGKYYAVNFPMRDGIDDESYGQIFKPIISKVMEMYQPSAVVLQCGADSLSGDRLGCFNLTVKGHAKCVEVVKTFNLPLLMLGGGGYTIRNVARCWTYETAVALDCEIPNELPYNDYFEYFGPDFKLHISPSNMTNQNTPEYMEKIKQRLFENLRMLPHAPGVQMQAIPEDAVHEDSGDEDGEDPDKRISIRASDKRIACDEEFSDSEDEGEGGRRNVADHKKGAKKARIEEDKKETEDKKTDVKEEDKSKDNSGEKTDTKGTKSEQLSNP
Readout Name: pIC50
Quick note: pIC50 means taking -log10 of the concentration in moles per liter.

Ask | Item `COc1cc2c(cc1OCc1ccc(C(=O)Nc3ccccc3N)cc1)CC[C@@H]1[C@@H]2CC[C@]2(C)[C@@H](O)CC[C@@H]12` has what recorded pIC50?
Reply | 7.22

src = ChEMBL document CHEMBL5579819
